Tested on: Hs-578T
Experiment summary: NCI tumour cell line growth inhibition, 48 h
The source made the active and inactive calls. Cut-off read from the data, not from the text of the source: active = GI50 up to about 1.1 µM and inactive = higher.
Listed here are molecules together with their documented GI50.

{"columns": ["Molecule", "GI50"],
 "data": [
  ["COc1ccc(/N=N/C(=N/NC(=O)c2cc(Cl)ccc2C(=O)c2ccccc2)c2ccc(N(CCC#N)CCC#N)cc2C)cc1", "29.9 µM (inactive)"],
  ["Cn1c(=O)c2c(nc3n2CC(=O)N3CCCCl)n(C)c1=O", "> 100 µM (inactive)"],
  ["CC(C)(CN1CCCCC1)C(=O)/C=C/c1c(Cl)cccc1Cl", "2.17 µM (inactive)"],
  ["Cc1nc2ccc(S(=O)(=O)Nc3nccs3)cc2c(=O)n1NS(=O)(=O)c1nccs1", "> 100 µM (inactive)"],
  ["O=C(CC(C(=O)c1cccs1)c1ccc2c(c1)OCO2)c1ccccc1 (centres undefined)", "> 100 µM (inactive)"],
  ["COc1ccc(-c2csc3c2[N+]2(C)C=CC=C2C3N2CCCC2)cc1 (centres undefined)", "15.7 µM (inactive)"],
  ["O=c1[nH]nc(-c2ccccc2)n1/N=C/c1ccccc1Cl", "16.2 µM (inactive)"],
  ["NC(=O)c1ccccc1NC(=O)C(=O)C(c1cnc2ccc([N+](=O)[O-])cc2n1)[N+](=O)[O-] (centres undefined)", "> 100 µM (inactive)"],
  ["O=C1N=NC(=O)N1c1cc(C(F)(F)F)cc(C(F)(F)F)c1", "3.93 µM (inactive)"],
  ["NC(=O)CN1CCN(c2nc(N3CCCC3)c3nc(Cl)c(NCc4ccccc4)nc3n2)CC1", "9.66 µM (inactive)"],
  ["CN(C)CC1CCCC1=O (centres undefined)", "17.9 µM (inactive)"],
  ["N#C/N=[N+](\\[O-])c1ccc(C(=O)O)cc1", "30.8 µM (inactive)"],
  ["COc1ccc(C(=O)/C=C/c2cccnc2)cc1OC", "14.6 µM (inactive)"],
  ["Nc1nc(Cl)cc(OCC2(CO)CCCCC2)n1", "> 100 µM (inactive)"]
]}
